System: canarygrass (Phalaris minor)
Assay: Test C pre-/postemergence plant response
Assay type: in vivo
Settings: Preemergence, 8 g ai/ha; scale 0 to 100 (0 no effect, 100 complete control)
Task for the reader: assign each of the following compounds its reported Plant response rating, Canarygrass.
The response must contain the number and no unit.

Form entry - test system: canarygrass (Phalaris minor); read-out: Plant response rating, Canarygrass; compound: `CCc1c(C)c(-c2ccc(Cl)cc2)nn1-c1c(O)cnn(C)c1=O`
0

Form entry - test system: canarygrass (Phalaris minor); read-out: Plant response rating, Canarygrass; compound: `CCc1cc(-c2ccc(C(F)(F)F)cc2)nn1-c1c(OS(C)(=O)=O)cnn(C)c1=O`
65

Form entry - test system: canarygrass (Phalaris minor); read-out: Plant response rating, Canarygrass; compound: `Cn1ncc(O)c(-c2nn(-c3ccc(Cl)cc3)cc2Cl)c1=O`
0

Form entry - test system: canarygrass (Phalaris minor); read-out: Plant response rating, Canarygrass; compound: `Cc1cc(-c2ccc(Cl)cc2)nn1-c1c(OC(=O)C(C)C)cnn(C)c1=O`
0

Form entry - test system: canarygrass (Phalaris minor); read-out: Plant response rating, Canarygrass; compound: `Cc1cc(-c2ccc(Cl)cc2)nn1-c1c(OC(=O)OCC(C)C)cnn(C)c1=O`
0
